Below, each of the compounds is paired with its reported inhibition at 0.001 µM value.
TARGET_OF_ASSAY: human 5-HT2A receptor (Homo sapiens, UniProt P28223)
Construct: expressed in transfected cells; host or cells: CHO cells (membrane preparation)
Sequence (P28223 whole entry): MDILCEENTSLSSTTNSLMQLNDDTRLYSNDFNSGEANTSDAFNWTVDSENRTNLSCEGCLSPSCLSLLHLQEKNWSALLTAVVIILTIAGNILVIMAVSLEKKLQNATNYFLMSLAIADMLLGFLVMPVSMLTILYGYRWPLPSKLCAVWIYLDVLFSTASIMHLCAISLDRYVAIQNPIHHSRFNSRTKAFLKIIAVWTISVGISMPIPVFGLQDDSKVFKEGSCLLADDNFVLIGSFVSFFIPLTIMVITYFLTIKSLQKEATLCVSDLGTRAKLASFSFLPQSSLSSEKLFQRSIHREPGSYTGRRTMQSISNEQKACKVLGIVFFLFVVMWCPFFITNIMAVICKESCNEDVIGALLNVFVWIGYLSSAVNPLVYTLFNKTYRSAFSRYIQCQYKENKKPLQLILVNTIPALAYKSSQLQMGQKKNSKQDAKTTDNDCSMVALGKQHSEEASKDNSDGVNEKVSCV
EXPERIMENTAL_PROTOCOL: Serotonin 5-HT2A receptor binding assay ([3H]-ketanserin)
TEST_SETTINGS: 1 nM test drug; [3H]-ketanserin 1 nM; human 5-HT2A receptor-expressing CHO cell membrane; read-out: BINDING INHIBITION RATE (%) 5HT2A 1 nM
Please reply with the bare figure in % and do not write the unit itself.

These recorded examples may help you get a feel for the data.
* Cc1ccc2cc(C(=O)N3CCC[C@H]3CCN3CCN(c4nsc5cc(F)ccc45)CC3)[nH]c2c1 | 34
* Cc1ccc2cc(C(=O)N3CCCC[C@H]3CCN3CCN(c4n[nH]c5ccccc45)CC3)[nH]c2c1 | 34
* O=C(c1ccc(F)cc1)C1CCN(CC[C@@H]2CCCN2C(=O)c2[nH]c3cc(F)ccc3c2F)CC1 | 75

Continue with the compound presented below.
Asked: Please report the recorded inhibition at 0.001 µM for Cc1ccc2cc(C(=O)N3C[C@H](O)CC[C@H]3CCN3CCC(c4c[nH]c5ccccc45)CC3)[nH]c2c1 .
Given back: 70
